Cited source: PubChem BioAssay AID2060337

# System: 832693-133-R-J1-PDC multi-cell spheroids, viability
# Experimental Details: Anticancer human tumor 832693-133-R-J1-PDC patient-derived head and neck squamous carcinoma cell line growth inhibition [IpAb]
# Condition Label: second compound 10 µM; first compound 0.1 µM; stronger effect = lower value
Each entry below carries its recorded viability, T/C.
Respond numerically; units are % and should not be typed.

Known results for molecules:
{"Molecule": "CC1(C)CCC(CN2CCN(c3ccc(C(=O)NS(=O)(=O)c4ccc(NCC5CCOCC5)c([N+](=O)[O-])c4)c(Oc4cnc5[nH]ccc5c4)c3)CC2)=C(c2ccc(Cl)cc2)C1 + CC(C)NCC(C(=O)N1CCN(c2ncnc3c2C(C)CC3O)CC1)c1ccc(Cl)cc1", "Property Label": "viability, T/C", "Measured Number": 62.5}
{"Molecule": "COc1c(OCCCN2CCOCC2)ccc2c3n(c(=NC(=O)c4cnc(N)nc4)nc12)CCN3 + CC(C)NCC(C(=O)N1CCN(c2ncnc3c2C(C)CC3O)CC1)c1ccc(Cl)cc1", "Property Label": "viability, T/C", "Measured Number": 7.94}
{"Molecule": "C=CC(=O)N1CCN(c2nc(=O)n(-c3c(C)ccnc3C(C)C)c3nc(-c4c(O)cccc4F)c(F)cc23)C(C)C1 (stereo not given) + CC(C)NCC(C(=O)N1CCN(c2ncnc3c2C(C)CC3O)CC1)c1ccc(Cl)cc1", "Property Label": "viability, T/C", "Measured Number": 69}
{"Molecule": "CC(C)n1nc(-c2ccc3oc(N)nc3c2)c2c(N)ncnc21 + CC(C)NCC(C(=O)N1CCN(c2ncnc3c2C(C)CC3O)CC1)c1ccc(Cl)cc1", "Property Label": "viability, T/C", "Measured Number": 51.5}

Shift focus to the following entry.
Notebook entry, 832693-133-R-J1-PDC multi-cell spheroids, viability assay: viability, T/C of C=CCn1c(=O)c2cnc(Nc3ccc(N4CCN(C)CC4)cc3)nc2n1-c1cccc(C(C)(C)O)n1 + CC(C)NCC(C(=O)N1CCN(c2ncnc3c2C(C)CC3O)CC1)c1ccc(Cl)cc1 = ? 43.2

###

# System: 832693-133-R-J1-PDC multi-cell spheroids, viability
# Experimental Details: Anticancer human tumor 832693-133-R-J1-PDC cell line growth inhibition [IpAb];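 also: spheroids exposed to the drugs for one week before the viability readout; 100% = DMSO vehicle control wells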
# Condition Label: second compound 1 µM; first compound 0.001 µM; stronger effect = lower value
Property Label: viability, T/C (%)
Respond numerically; units are % and should not be typed.

Known results for compounds:
{"Compound": "CC(C)n1nc(-c2ccc3oc(N)nc3c2)c2c(N)ncnc21 + CC(C)NCC(C(=O)N1CCN(c2ncnc3c2C(C)CC3O)CC1)c1ccc(Cl)cc1", "Endpoint Unit": "%", "Measured Number": 74.5}
{"Compound": "Cn1ncnc1[C@H]1c2n[nH]c(=O)c3cc(F)cc(c23)N[C@@H]1c1ccc(F)cc1 + CCN1CCN(Cc2ccc(Nc3ncc(F)c(-c4cc(F)c5nc(C)n(C(C)C)c5c4)n3)nc2)CC1", "Endpoint Unit": "%", "Measured Number": 56.2}
{"Compound": "Cn1ncnc1[C@H]1c2n[nH]c(=O)c3cc(F)cc(c23)N[C@@H]1c1ccc(F)cc1 + CC(C)NCC(C(=O)N1CCN(c2ncnc3c2C(C)CC3O)CC1)c1ccc(Cl)cc1", "Endpoint Unit": "%", "Measured Number": 56.8}

Shift focus to the following entry.
Notebook entry, 832693-133-R-J1-PDC multi-cell spheroids, viability assay: viability, T/C of CC(C)n1nc(-c2ccc3oc(N)nc3c2)c2c(N)ncnc21 + CCN1CCN(Cc2ccc(Nc3ncc(F)c(-c4cc(F)c5nc(C)n(C(C)C)c5c4)n3)nc2)CC1 = ? 50.3
